A short record of pIC50 observed with PIK3CA (human) (UniProt P42336) follows.
Sequence (P42336 whole entry, looked up): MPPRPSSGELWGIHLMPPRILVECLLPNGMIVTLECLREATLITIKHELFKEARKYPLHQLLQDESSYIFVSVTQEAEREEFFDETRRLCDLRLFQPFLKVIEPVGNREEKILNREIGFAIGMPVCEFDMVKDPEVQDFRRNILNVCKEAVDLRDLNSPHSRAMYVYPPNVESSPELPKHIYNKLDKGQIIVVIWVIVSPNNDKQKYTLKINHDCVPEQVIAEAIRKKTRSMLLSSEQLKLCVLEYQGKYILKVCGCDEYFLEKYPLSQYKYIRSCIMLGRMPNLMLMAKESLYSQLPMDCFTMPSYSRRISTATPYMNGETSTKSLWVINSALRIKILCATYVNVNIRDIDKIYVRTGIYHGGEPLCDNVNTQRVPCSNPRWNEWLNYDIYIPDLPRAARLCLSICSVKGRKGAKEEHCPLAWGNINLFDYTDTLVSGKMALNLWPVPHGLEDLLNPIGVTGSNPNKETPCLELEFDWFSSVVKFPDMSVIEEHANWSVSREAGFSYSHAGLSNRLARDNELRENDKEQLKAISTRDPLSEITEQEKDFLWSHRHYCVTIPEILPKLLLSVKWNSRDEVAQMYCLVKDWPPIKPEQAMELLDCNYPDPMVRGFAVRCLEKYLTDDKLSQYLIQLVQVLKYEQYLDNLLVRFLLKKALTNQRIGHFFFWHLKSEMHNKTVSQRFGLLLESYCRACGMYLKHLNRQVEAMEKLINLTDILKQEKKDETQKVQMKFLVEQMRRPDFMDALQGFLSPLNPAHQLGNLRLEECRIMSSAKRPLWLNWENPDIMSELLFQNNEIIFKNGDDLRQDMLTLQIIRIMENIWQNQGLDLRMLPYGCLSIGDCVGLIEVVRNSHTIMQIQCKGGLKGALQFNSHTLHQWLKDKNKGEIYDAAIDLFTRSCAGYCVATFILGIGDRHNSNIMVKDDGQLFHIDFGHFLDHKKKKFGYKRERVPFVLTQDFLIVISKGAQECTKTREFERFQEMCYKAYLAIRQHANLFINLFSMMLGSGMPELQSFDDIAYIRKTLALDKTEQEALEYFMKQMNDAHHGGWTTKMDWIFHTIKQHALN
Answers are plain numbers, as −log10 of the molar value.

Check out these entries, answers already filled in.
{"Compound": "Cc1nc(-c2cn3c(n2)-c2cc([C@@H](C)N4CCN(C(C)C)CC4)c(F)cc2OCC3)n(C(C)C)n1", "Numeric Result": 6.77}
{"Compound": "Cc1nc(-c2cn3c(n2)-c2ccc(OC4(CC5CC5)CN(C(C)C)C4)cc2OCC3)n(C(C)C)n1", "Numeric Result": 7.15}
{"Compound": "CC(C)n1ncnc1-c1cn2c(n1)-c1cc(CN3CCN(C(C)(C)C)CC3)ccc1OCC2", "Numeric Result": 7.27}

# context switch: different compound, same pIC50
Incoming: Give reported pIC50 value for CC(Oc1ccc2c(c1)OCCn1cc(-c3ncnn3C(C)C)nc1-2)C1CCN(C(C)C)CC1 (centres undefined)
Outgoing: 8.20

====

A short record of IC50 observed with UniProt:P42336 follows.
Answers are plain numbers, in nM.

Check out these entries, answers already filled in.
{"Compound": "Cc1nc(-c2cn3c(n2)-c2ccc(-c4cnn(C(C)C)c4CN4CCN(C)CC4)cc2OCC3)n(C(C)C)n1", "Readout Kind": "IC50", "Units Symbol": "nM", "Numeric Result": 112}
{"Compound": "Cc1nc(-c2cn3c(n2)-c2ccc(-n4ccnc4C4CCCN(C(C)C)C4)cc2OCC3)n(C(C)C)n1 (centres undefined)", "Readout Kind": "IC50", "Units Symbol": "nM", "Numeric Result": 125}
{"Compound": "Cc1nc(-c2cn3c(n2)-c2cc(C(C)N4CCN(C(C)(C)C)CC4)c(F)cc2OCC3)n(C(C)C)n1 (centres undefined)", "Readout Kind": "IC50", "Units Symbol": "nM", "Numeric Result": 250}

# context switch: different compound, same IC50
Incoming: Give reported IC50 value for Cc1nc(-c2cn3c(n2)-c2cnc(-c4cnn(C)c4C4CCCN(C(C)C)C4)cc2OCC3)n(C(C)C)n1 (centres undefined)
Outgoing: 9.19

====

Tested On: PIK3CA (human) (UniProt P42336)
// classify: if (IC50 < 80 nM) t else f

Take a look at these entries with their results.
{"Molecule": "Cc1nc(-c2cn3c(n2)-c2cc([C@@H](C)N4CCN(C(C)(C)C)CC4)c(F)cc2OCC3)n(C(C)C)n1", "Qualitative Label": "f"}
{"Molecule": "Cc1nc(-c2cn3c(n2)-c2ccc(-c4ncnn4C4CCN(C(C)(C)C)CC4)cc2OCC3)n(C(C)C)n1", "Qualitative Label": "f"}
{"Molecule": "Cc1nc(-c2cn3c(n2)-c2ccc(-c4cnn(C)c4[C@@H]4CCCN(C(C)C)C4)cc2OCC3)n(C(C)C)n1", "Qualitative Label": "t"}
{"Molecule": "Cc1nc(-c2cn3c(n2)-c2cc(C(C)N4CCN(CC(C)(C)O)CC4)c(C)cc2OCC3)n(C(C)C)n1 (configuration not stated)", "Qualitative Label": "t"}
{"Molecule": "Cc1nc(-c2cn3c(n2)-c2cc([C@H](C)N4CCN(C(C)(C)C)CC4)c(F)cc2OCC3)n(C(C)C)n1", "Qualitative Label": "f"}
{"Molecule": "Cc1cc2c(cc1-c1ccnn1C1CCN(C)CC1)OCCn1cc(-c3ncnn3C(C)C)nc1-2", "Qualitative Label": "f"}

Incoming: Please let me know if Cc1nc(-c2cn3c(n2)-c2ccc(N4CCCC45CCCN(C(C)C)C5)cc2OCC3)n(C(C)C)n1 (configuration not stated) shows IC50 below 80 nM.
Outgoing: t
